target: Leukotriene B4 receptor (Homo sapiens, UniProt Q9NPC1+Q15722)
experiment-summary: Inhibition of specific binding of [3H]LTB4 to LTB4 receptor in human neutrophils
Type: protein assay
Known IC50 of a selection of compounds
Report only the number, with the unit nM understood.

Some compounds with recorded IC50:
smiles-representation	unit-annotation	IC50
CCCc1c(OCCCOc2cc(O)c(C(C)=O)cc2CC)cccc1OCc1ccccc1C(=O)[O-].[Na+]	nM	130
CCCc1c(OCCCOc2cc(O)c(C(C)=O)cc2CC)cccc1Oc1ccccc1C(=O)[O-].[Na+]	nM	24

Memo: CCc1cc(C(C)=O)c(O)cc1OCCCOc1cccc(Oc2cccc(C(=O)[O-])c2)c1.[Na+] , reported IC50: 460

Data point: CCCc1cc(Oc2ccc(C(=O)[O-])cc2)ccc1OCCCOc1cc(O)c(C(C)=O)cc1CC.[Na+] ; IC50 = 330

For record CCc1cc(C(C)=O)c(O)cc1OCCCOc1ccc(Oc2ccc(C(=O)[O-])cc2)cc1.[Na+] the listed IC50 is 190

IC50 reading for CCCc1c(OCCCCOc2cc(O)c(C(C)=O)cc2CC)cccc1Oc1ccccc1C(=O)[O-].[Na+] : 94

Form field IC50, entry CCc1cc(C(C)=O)c(O)cc1OCCCOc1cccc(Oc2ccccc2C(=O)[O-])c1.[Na+] : 290

Lab note: measured IC50 of CCCc1cc(Oc2cccc(C(=O)[O-])c2)ccc1OCCCOc1cc(O)c(C(C)=O)cc1CC.[Na+] was 160

* * *

target: Leukotriene B4 receptor (Cavia porcellus)
experiment-summary: Inhibition of specific binding of [3H]-LTB4 to LTB4 receptor in guinea pig lung membranes
test-readout: Ki (nM)
Please respond with the number in nM and leave the unit unwritten.

Here is how some compounds turned out for Ki.
smiles-representation	unit-annotation	Ki
CCc1cc(C(C)=O)c(O)cc1OCCCOc1ccc(Oc2ccc(C(=O)[O-])cc2)cc1.[Na+]	nM	90
CCc1cc(C(C)=O)c(O)cc1OCCCOc1cccc(Oc2cccc(C(=O)[O-])c2)c1.[Na+]	nM	140
CCCc1c(OCCCOc2cc(O)c(C(C)=O)cc2CC)cccc1OCc1ccccc1C(=O)[O-].[Na+]	nM	244

For the next question, use this compound.
Simply: CCCc1c(OCCCCOc2cc(O)c(C(C)=O)cc2CC)cccc1Oc1ccccc1C(=O)[O-].[Na+] , Leukotriene B4 receptor (Cavia porcellus), Ki = 59
